The measurements presented in this section are drawn from the supplement of paper PMC10065799.

test system: c-Src; test: phosphorylation enrichment, bacterial display (enrichment ratio); higher = better substrate or ligand; peptides without Tyr show the background;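 also: 11-residue human phosphosite peptides and single-mutation variants displayed on the E. coli surface, counted by deep sequencing, each peptide's frequency after selection divided by its frequency in the unselected input library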;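 also: frequency after pTyr selection over input frequency; kinase dosed for 20-30% of maximal phosphorylation in three min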
Cut-off 0.5 on phosphorylation enrichment, inclusive. At or above means 1.0; below means 0.0.

Example entries and their recorded answers appear below.
Biopolymer sequence	Classification
SPPEVYAIMRG [NTRK1_Y757_C752S]	1.0
VGQRPYRPLPE [REEP3_Y170_Q171R]	0.0
QKTGDYFDLFG [PTPN11_Y62_N58K_YF]	1.0
LDTSQYFRLFN [CPT2_Y217_M214T]	1.0
EVGHVYLFLQP [ITGA2B_Y360_R358H]	0.0

### Prompt Would you say NELTYYCYKKD [CD59_Y87_C89Y] shows phosphorylation enrichment at minimum 0.5?
### Response 1.0

### Prompt Would you say CFTRQYTLPPG [HSPB1_Y142_K141Q] shows phosphorylation enrichment at minimum 0.5?
### Response 0.0
